Biological target: T1, human C5L2 (human, UniProt Q9P296 1-337)
T1 construct: Expressed on stably transfected RBL-2H3 cells, on transiently or stably transfected HEK 293 cells, and endogenously on HSF cells; also called C5L2 receptor
T1 sequence (Q9P296 whole entry): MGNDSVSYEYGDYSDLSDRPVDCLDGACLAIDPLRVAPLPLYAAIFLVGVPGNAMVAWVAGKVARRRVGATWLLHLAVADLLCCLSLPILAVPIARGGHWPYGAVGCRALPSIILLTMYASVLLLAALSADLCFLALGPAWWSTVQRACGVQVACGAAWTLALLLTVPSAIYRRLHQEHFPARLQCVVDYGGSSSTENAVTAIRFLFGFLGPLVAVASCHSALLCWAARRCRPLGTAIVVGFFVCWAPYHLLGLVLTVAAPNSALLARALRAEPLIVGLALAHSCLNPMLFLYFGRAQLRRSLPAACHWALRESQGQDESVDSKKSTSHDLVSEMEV
Assay: competition with 50 pM 125I-C5a on C5L2-transfected RBL cells, 4 C
MEASURE: IC50 (nM)
I only need the number, in nM, no unit after it.

Input line: Fill blank: measured IC50 of the binder recombinant His6-tagged C5a (ligand, UniProt P01031 678-751, looked up, domain: C5a; Expressed and purified under denaturing conditions; not shown: His6 tag) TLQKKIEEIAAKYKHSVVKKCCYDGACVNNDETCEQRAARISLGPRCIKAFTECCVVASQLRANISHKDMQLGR is ____.
Output line: 8.17

Hello, the source for this data is patent US20060121462A1, in case you need it.
